Attribution: paper PMC6628362

# Protocol text: Brain and tissue distribution of Si306 in mice
# Format: in vivo, BALB/C mice
# Measurement context: male, BALB/C, mouse, po, brain, 50 mg/kg

Molecule	AUC(0-inf) (ng·h/mL)
ClC(Cn1ncc2c(Nc3cccc(Br)c3)nc(SCCN3CCOCC3)nc21)c1ccccc1 (stereo not shown)	18000

====

# Protocol text: Plasma pharmacokinetics of Si306 in mice
# Assay type: in vivo, BALB/C mice
# Measurement context: male, BALB/C, mouse, iv, 25 mg/kg, i.v., 25 mg/kg, mice, read-out: Tmax

Compound	Tmax
ClC(Cn1ncc2c(Nc3cccc(Br)c3)nc(SCCN3CCOCC3)nc21)c1ccccc1 (stereo not shown) [Si306]	4.8 min

====

# Protocol text: Brain and tissue distribution of Si306 in mice
# Type: in vivo, BALB/C mice
# Measurement context: male, BALB/C, mouse, brain/plasma, oral route, 50 mg/kg, read-out: AUC brain to plasma ratio

Compound	Kp
ClC(Cn1ncc2c(Nc3cccc(Br)c3)nc(SCCN3CCOCC3)nc21)c1ccccc1 (stereo not shown)	1.19

====

# Protocol text: Brain and tissue distribution of Si306 in mice
# Format: in vivo, BALB/C mice
# Measurement context: male, BALB/C, mouse, po, brain, p.o., 50 mg/kg, read-out: MRT 0→∞

Molecule	Value units	MRT inf
ClC(Cn1ncc2c(Nc3cccc(Br)c3)nc(SCCN3CCOCC3)nc21)c1ccccc1 (stereo not shown) [Si306]	h	1.2

====

# Protocol text: Brain and tissue distribution of Si306 in mice
# Assay type: in vivo, BALB/C mice
# Measurement context: male, BALB/C, mouse, po, brain, p.o., 50 mg/kg, read-out: AUC 0→24 h

Compound	AUC(0-t) / ng·h/mL
ClC(Cn1ncc2c(Nc3cccc(Br)c3)nc(SCCN3CCOCC3)nc21)c1ccccc1 (stereo not shown)	18000

====

# Protocol text: Brain and tissue distribution of Si306 in mice
# Format: in vivo, BALB/C mice
# Measurement context: male, BALB/C, mouse, iv, brain, 25 mg/kg
Observed property: AUC(0-inf) (ng·h/mL)

Molecule	Value units	Reported measurement
ClC(Cn1ncc2c(Nc3cccc(Br)c3)nc(SCCN3CCOCC3)nc21)c1ccccc1 (stereo not shown)	ng·h/mL	2150

====

# Protocol text: Plasma pharmacokinetics of Si306 in mice
# Format: in vivo, BALB/C mice
# Measurement context: male, BALB/C, mouse, po, 50 mg/kg, mice, read-out: AUC 0→24 h

Compound	AUC(0-t)
ClC(Cn1ncc2c(Nc3cccc(Br)c3)nc(SCCN3CCOCC3)nc21)c1ccccc1 (stereo not shown)	14500 ng·h/mL

====

# Protocol text: Plasma pharmacokinetics of Si306 in mice
# Type: in vivo, BALB/C mice
# Measurement context: male, BALB/C, mouse, iv, 25 mg/kg, mice

Compound	Cmax (ng/mL)
ClC(Cn1ncc2c(Nc3cccc(Br)c3)nc(SCCN3CCOCC3)nc21)c1ccccc1 (stereo not shown)	25400

====

# Protocol text: Plasma pharmacokinetics of Si306 in mice
# Assay type: in vivo, BALB/C mice
# Measurement context: male, BALB/C, mouse, po, 50 mg/kg, mice

Molecule	Cmax
ClC(Cn1ncc2c(Nc3cccc(Br)c3)nc(SCCN3CCOCC3)nc21)c1ccccc1 (stereo not shown)	2970 ng/mL
